Some compounds, each annotated with its measured Dmax.
system.tested: HiBiT tagged CK1α (Homo sapiens, UniProt P48729+Q96SW2)
Sequence (P48729 whole entry): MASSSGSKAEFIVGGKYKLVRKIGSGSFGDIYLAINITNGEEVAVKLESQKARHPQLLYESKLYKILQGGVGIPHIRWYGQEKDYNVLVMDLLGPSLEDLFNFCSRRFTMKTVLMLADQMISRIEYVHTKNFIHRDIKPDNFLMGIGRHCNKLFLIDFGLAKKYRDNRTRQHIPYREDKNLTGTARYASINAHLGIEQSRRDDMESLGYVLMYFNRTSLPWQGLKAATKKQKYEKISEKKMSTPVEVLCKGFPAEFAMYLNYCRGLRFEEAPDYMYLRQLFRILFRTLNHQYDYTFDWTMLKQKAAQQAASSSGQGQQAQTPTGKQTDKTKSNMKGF
Sequence (Q96SW2 whole entry): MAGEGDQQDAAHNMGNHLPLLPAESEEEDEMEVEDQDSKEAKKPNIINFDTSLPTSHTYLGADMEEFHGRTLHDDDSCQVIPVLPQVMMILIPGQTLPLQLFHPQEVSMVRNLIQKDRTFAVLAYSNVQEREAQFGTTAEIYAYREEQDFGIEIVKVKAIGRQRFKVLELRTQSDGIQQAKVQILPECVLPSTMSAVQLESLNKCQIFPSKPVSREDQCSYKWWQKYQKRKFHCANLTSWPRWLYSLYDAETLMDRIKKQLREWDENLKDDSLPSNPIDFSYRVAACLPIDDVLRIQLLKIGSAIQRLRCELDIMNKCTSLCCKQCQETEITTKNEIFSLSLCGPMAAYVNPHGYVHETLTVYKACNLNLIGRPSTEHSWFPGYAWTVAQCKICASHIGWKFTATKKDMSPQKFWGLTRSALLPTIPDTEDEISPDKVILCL
Sequence (Q16531 whole entry partner): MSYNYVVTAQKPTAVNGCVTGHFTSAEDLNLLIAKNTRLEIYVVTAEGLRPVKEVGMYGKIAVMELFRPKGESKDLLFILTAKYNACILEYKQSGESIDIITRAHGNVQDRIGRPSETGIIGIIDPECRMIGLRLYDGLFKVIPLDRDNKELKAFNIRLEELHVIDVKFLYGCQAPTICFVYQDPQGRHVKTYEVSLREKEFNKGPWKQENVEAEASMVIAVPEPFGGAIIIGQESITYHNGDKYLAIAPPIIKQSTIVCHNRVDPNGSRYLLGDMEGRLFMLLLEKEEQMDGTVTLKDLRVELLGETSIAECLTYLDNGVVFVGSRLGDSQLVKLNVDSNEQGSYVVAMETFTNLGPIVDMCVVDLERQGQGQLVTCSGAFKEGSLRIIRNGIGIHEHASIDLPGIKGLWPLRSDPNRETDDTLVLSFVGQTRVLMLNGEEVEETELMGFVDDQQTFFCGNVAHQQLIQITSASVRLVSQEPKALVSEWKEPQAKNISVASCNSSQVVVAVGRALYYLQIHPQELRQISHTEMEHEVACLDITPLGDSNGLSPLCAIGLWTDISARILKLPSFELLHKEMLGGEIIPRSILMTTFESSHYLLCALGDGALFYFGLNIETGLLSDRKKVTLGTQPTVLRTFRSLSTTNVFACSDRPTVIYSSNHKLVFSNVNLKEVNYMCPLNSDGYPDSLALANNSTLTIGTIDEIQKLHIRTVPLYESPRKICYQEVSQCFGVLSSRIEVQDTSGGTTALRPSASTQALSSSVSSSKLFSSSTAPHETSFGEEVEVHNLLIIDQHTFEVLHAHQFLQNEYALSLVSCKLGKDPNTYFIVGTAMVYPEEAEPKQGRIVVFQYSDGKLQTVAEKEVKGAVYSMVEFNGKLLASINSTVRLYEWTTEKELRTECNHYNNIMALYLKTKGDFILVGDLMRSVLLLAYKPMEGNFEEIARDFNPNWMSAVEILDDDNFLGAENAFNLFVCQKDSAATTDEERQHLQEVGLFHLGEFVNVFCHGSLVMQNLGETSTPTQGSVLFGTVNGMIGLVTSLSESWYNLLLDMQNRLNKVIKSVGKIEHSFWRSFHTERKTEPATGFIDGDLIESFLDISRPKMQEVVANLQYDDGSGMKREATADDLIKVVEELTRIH
assay.comment: CK1α degradation assay (HiBiT assay)
Assay type: cell-based
stated.conditions: HT-1080, HT-1080 cells, 20 hours; maximum CK1α degradation
Return type: number; implicit unit %.

compound	quantity.unit	Dmax
COc1cccc([C@H](NC(=O)c2ccc3c(c2)CN(C2CCC(=O)NC2=O)C3=O)C2CC2)c1 (stereo in doubt)	%	48.1

## Task Please look at this compound and report its Dmax: O=C1CCC(N2Cc3cc(C(=O)NC(c4c(F)cccc4Cl)C4CC4)ccc3C2=O)C(=O)N1 (stereo not shown)
## Result 73.8

## Task Please look at this compound and report its Dmax: O=C1CCC(N2Cc3cc(C(=O)NC(c4ccc(F)cc4Cl)C4CCC4)ccc3C2=O)C(=O)N1 (single isomer, unassigned) [Compound 53]
## Result 70.2

## Task Please look at this compound and report its Dmax: O=C1CCC(N2Cc3cc(C(=O)N[C@H](c4ccc(F)cc4F)C4CCC4)ccc3C2=O)C(=O)N1 (stereo in doubt)
## Result 70.5

## Task Please look at this compound and report its Dmax: O=C1CCC(N2Cc3cc(C(=O)NC(c4cccc(F)c4)C4CCC4)ccc3C2=O)C(=O)N1 (stereo not shown)
## Result 61.3
